- Tested on: ACHN renal
- Protocol: NCI-60 one-dose screen, 48 h (100 = growth as untreated, 0 = no growth, -100 = all killed)
- Protocol Conditions: 10 µM unless noted
The panel holds about 83,000 compounds, 20% with a hit somewhere; the sample as a whole holds those more often.

- Compound: "O=S(=O)(CCN1CCOCC1)Nc1cncc(-c2ccc3ncnc(Nc4ccc(F)c(Cl)c4)c3c2)c1"
  Unit Tag: "%"
  growth: 45.2
- Compound: "Nc1nccc2c1ccn2-c1ccc(NC(=O)c2ccc(N3CCOCC3)c(C(F)(F)F)c2)cc1"
  Unit Tag: "%"
  growth: 24.3
- Compound: "COc1ccc(C2CC(c3cc(Cl)c(C)cc3OC)=NN2c2ccc(S(N)(=O)=O)cc2)cc1OC (stereo not given)"
  Unit Tag: "%"
  growth: 84
- Compound: "Cn1cnc([N+](=O)[O-])c1N1c2ccncc2Sc2ccncc21"
  Unit Tag: "%"
  growth: 75.8
- Compound: "O=C(Nc1ccc(F)cc1)Nc1ccc(Cl)c([N+](=O)[O-])c1"
  Unit Tag: "%"
  growth: 4.79
- Compound: "CCC(CC(C)C)Nc1ccc(NC(CC)CC(C)C)cc1 (stereo not given)"
  Unit Tag: "%"
  growth: 95.3
- Compound: "COc1ccc(-c2cnc(-c3ccc(F)cc3)[nH]2)cc1"
  Unit Tag: "%"
  growth: 105
- Compound: "Cc1cc2nc(-c3c(N)ncc(C#N)c3-c3ccc(Cl)cc3)[nH]c2cc1C"
  Unit Tag: "%"
  growth: 67.7
- Compound: "CCOC(=O)n1cnc2c(Cl)ncnc21"
  Unit Tag: "%"
  growth: 108
- Compound: "COc1cc(NC(C)CCCN2C(=O)c3ccccc3C2=O)c2ncccc2c1OC (stereo not given)"
  Unit Tag: "%"
  growth: 97.9

----------
- Test system: MDA-MB-231 breast
- Protocol: NCI-60 one-dose screen, 48 h
- Protocol Conditions: 10 µM unless noted
This is part of a sample that, as a whole, favours compounds with a hit. Of some 83,000 tested, about 20% had one in any assay. The source made the active and inactive calls. Rule for the calls: active = growth percent below 10; inactive = the rest.
Possible outcomes: label 1 for active, label 0 for inactive

- Smiles Repr: "C#CC(=O)/C=C/CCCCCCC#CC(=O)CCC(=O)C#CCCCCCC/C=C/C(=O)C#C"
  Label Class: "label 1"
- Smiles Repr: "COc1cc2c(cc1OCCCCC(=O)Nc1ccc(-c3nc4ccccc4s3)cc1)N=C[C@@H]1CCCN1C2=O"
  Label Class: "label 0"
- Smiles Repr: "O=C(/C=C/c1ccco1)c1cccc(Nc2nc(Nc3ccccc3)nc(Nc3ccccc3)n2)c1"
  Label Class: "label 0"
- Smiles Repr: "CCNC(=O)Oc1ccc(/C(=C(/CC)Cc2ccccc2)c2ccc(OCCN3CCOCC3)cc2)cc1"
  Label Class: "label 0"
- Smiles Repr: "O=C(CSc1nnc(-c2ccccc2)o1)Nc1ccc(C(=O)/C=C/c2ccccc2)cc1"
  Label Class: "label 0"

----------
- System: UACC-257 melanoma
- Protocol: NCI-60 one-dose screen, 48 h (100 = growth as untreated, 0 = no growth, -100 = all killed)
- Protocol Conditions: 10 µM unless noted
The panel holds about 83,000 compounds, 20% with a hit somewhere; the sample as a whole holds those more often.
So basically, if growth comes in under 90% it's 1.0, and if it's 90% or more it's 0.0.

- Compound: "O=C(N/N=C/c1ccccc1O)c1ccccc1O"
  Label Class: 1.0
- Compound: "Cn1c(I)c(C#C[Si](C)(C)C)c(=O)[nH]c1=O"
  Label Class: 1.0
- Compound: "COC1=C(OC)C(=O)C=CC1=O"
  Label Class: 0.0
- Compound: "CC(C)(C)OC(=O)N1CCN(CCn2cc(C(F)(F)F)c3c(Cl)ncnc32)CC1"
  Label Class: 1.0
- Compound: "CC1CCC(C(C)C)C(NN)C1 (stereo unspecified)"
  Label Class: 1.0
- Compound: "COC(=O)c1ccc(NC(N)=NCC(C)(C)COc2ccc(C(F)(F)F)cc2)nc1"
  Label Class: 1.0
- Compound: "CNCCCOc1c(Br)cc(CCNC(=O)/C(Cc2ccc(OC)c(Br)c2)=N/O)cc1Br"
  Label Class: 1.0
- Compound: "COc1cc(/C=C2/Oc3cc4occc4c(OC)c3C2=O)ccc1OCC(=O)Nc1ccncc1"
  Label Class: 0.0
- Compound: "Oc1ccc(Cl)cc1Sc1cc(Cl)ccc1O"
  Label Class: 0.0
- Compound: "CC(=S)Nc1ccccc1"
  Label Class: 1.0
- Compound: "CC(=O)O[C@@H]1[C@@H](OC(C)=O)[C@H](OC(C)=O)CO[C@H]1Nc1cccc2ccccc12"
  Label Class: 0.0
